assay_endpoint: melting point

Check out these entries, answers already filled in.
                              sample_smiles   result_value
0  COc1cc(Nc2c(C#N)cnc3cc(-c4ccc(CN5CC[S+]([O-])CC5)cc4)sc23)c(Cl)cc1Cl  242 to 245 °C
1  COc1cc(Nc2c(C#N)cnc3cc(-c4ccc(CN5CCN(C)CC5)cc4)sc23)cc(OC)c1OC  189 to 191 °C
2     COc1cc(Nc2c(C#N)cnc3sccc23)c(Cl)cc1Cl  197 to 199 °C

[Q] Please report melting point for the following molecule: COc1cc(Nc2c(C#N)cnc3cc(C)sc23)c(Cl)cc1Cl
[A] 213 to 214 °C
